Experimental Endpoint: melting point

1. CC(C)c1ccc2c(c1)CCC1C(C)(CNC(=O)c3cnccn3)CCCC21C (stereo not drawn) [L^7, 2-pyrazine-acyl-dehydroabietylamine]
159.8 to 162.3 °C
2. Cc1ccc(C(=O)NCC2(C)CCCC3(C)c4ccc(C(C)C)cc4CCC23)s1 (stereo not drawn)
169.4 to 171.7 °C
3. Cc1cnc(C(=O)NCC2(C)CCCC3(C)c4ccc(C(C)C)cc4CCC23)cn1 (stereo not drawn)
130.7 to 133.4 °C
4. CC(C)c1ccc2c(c1)CCC1C(C)(CNC(=O)c3ccc(Br)s3)CCCC21C (stereo not drawn)
170.7 to 173.2 °C
5. Cc1ccsc1C=NCC1(C)CCCC2(C)c3ccc(C(C)C)cc3CCC12 (stereo not drawn)
38.2 to 39.1 °C
6. CC(C)c1ccc2c(c1)CCC1C(C)(CNC(=O)c3cnc(Cl)cn3)CCCC21C (stereo not drawn)
152.4 to 154.5 °C
